# credit: the supplement of paper PMC10567573

B1: KCNG1 (parent)
chain: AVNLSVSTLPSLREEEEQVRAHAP

Variants of: B1
Test Protocol: protein stability index of a GFP-peptide fusion (GPS, HEK-293T) (PSI 1-6); higher = more stable;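 note: lentivirally expressed fusions sorted by FACS into six bins by GFP to DsRed ratio, PSI derived from sequencing read proportions per bin multiplied by bin number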
Run Parameters: c terminus: a fixed tail appended
Kindly return Criterion met if reported protein stability index is no lower than 5; return Criterion not met if it is lower.

Mutation Label: L12V
Answer Label: Criterion not met
//
Mutation Label: H22L
Answer Label: Criterion not met
//
Mutation Label: P24G
Answer Label: Criterion met
//
Mutation Label: N3P
Answer Label: Criterion met
//
Mutation Label: L9K
Answer Label: Criterion met
//
Mutation Label: E15M
Answer Label: Criterion not met
//
Mutation Label: R13D
Answer Label: Criterion met
//
Mutation Label: Q18M
Answer Label: Criterion not met
//
Mutation Label: A21T
Answer Label: Criterion not met
//
Mutation Label: S5L
Answer Label: Criterion not met
//
Mutation Label: A23F
Answer Label: Criterion not met
//
Mutation Label: A1D
Answer Label: Criterion met
//
Mutation Label: V6S
Answer Label: Criterion met
//
Mutation Label: P24D
Answer Label: Criterion met
//
Mutation Label: E17T
Answer Label: Criterion not met
//
Mutation Label: P10W
Answer Label: Criterion not met
//
Mutation Label: H22G
Answer Label: Criterion met
